Cited source for all entries: the supplement of paper PMC10307832

// reported relative viability per item
System: COR-L23
Assay: relative viability (nuclei count vs DMSO), 5 days (fraction); higher = more cells survive
Conditions: first compound 0.253 µM

Query string: Form field: reported relative viability of O=c1cc(-c2cccc3c2Sc2ccccc2S3)oc(N2CCOCC2)c1 + CCNC(=O)c1noc(-c2cc(C(C)C)c(O)cc2O)c1-c1ccc(CN2CCOCC2)cc1 [Luminespib] (partner 0.01 µM)
Result string: 0.854

Query string: Query (compound): COc1nc(C)cnc1NS(=O)(=O)c1cccnc1-c1ccc(-c2nnco2)cc1 [Zibotentan] + COc1cccc2cc(-c3nc([C@H]4CC[C@H](C(=O)O)CC4)n4ncnc(N)c34)[nH]c12 [OSI-027] (partner 0.5 µM) ; field requested: relative viability
Result string: 0.651

Query string: Query (compound): COc1nc(C)cnc1NS(=O)(=O)c1cccnc1-c1ccc(-c2nnco2)cc1 [Zibotentan] + COc1cc2c(Oc3ccc(NC(=O)C4(C(=O)Nc5ccc(F)cc5)CC4)cc3F)ccnc2cc1OCCCN1CCOCC1 [Foretinib] (partner 0.25 µM) ; field requested: relative viability
Result string: 0.926

Query string: Entry COc1nc(C)cnc1NS(=O)(=O)c1cccnc1-c1ccc(-c2nnco2)cc1 [Zibotentan] + N=C(N)NC(=N)NCCc1ccccc1 [Phenformin] (partner 250 µM) : reported relative viability = ?
Result string: 0.376

Query string: What relative viability value was documented for this compound, O=c1cc(-c2cccc3c2Sc2ccccc2S3)oc(N2CCOCC2)c1 + Nc1ncn([C@H]2C[C@H](O)[C@@H](CO)O2)c(=O)n1 [Decitabine] (partner 2 µM) ?
Result string: 0.513

Query string: Any idea what relative viability was measured for O=c1cc(-c2cccc3c2Sc2ccccc2S3)oc(N2CCOCC2)c1 + C[C@]1(O)C[C@@H](c2nc(-c3ccc4ccc(-c5ccccc5)nc4c3)c3c(N)nccn32)C1 [Linsitinib] (partner 1 µM) ?
Result string: 0.965

Query string: What value of relative viability has been recorded for this entry: O=c1cc(-c2cccc3c2Sc2ccccc2S3)oc(N2CCOCC2)c1 + O=C(c1cc(Cc2n[nH]c(=O)c3ccccc23)ccc1F)N1CCN(C(=O)C2CC2)CC1 [Olaparib] (partner 8 µM)
Result string: 0.395

Query string: What does the data say about its relative viability? Entry: O=c1cc(-c2cccc3c2Sc2ccccc2S3)oc(N2CCOCC2)c1 + CC(=O)c1c(C)c2cnc(Nc3ccc(N4CCNCC4)cn3)nc2n(C2CCCC2)c1=O [Palbociclib] (partner 0.5 µM)
Result string: 0.307

Query string: Data request, read-out relative viability, for O=c1cc(-c2cccc3c2Sc2ccccc2S3)oc(N2CCOCC2)c1 + CC(=O)Nc1cccc(-n2c(=O)n(C3CC3)c(=O)c3c(Nc4ccc(I)cc4F)n(C)c(=O)c(C)c32)c1 [Trametinib] (partner 0.02 µM)
Result string: 0.689

Query string: Record request: relative viability value, item COc1nc(C)cnc1NS(=O)(=O)c1cccnc1-c1ccc(-c2nnco2)cc1 [Zibotentan] + CC(=O)Nc1cccc(-n2c(=O)n(C3CC3)c(=O)c3c(Nc4ccc(I)cc4F)n(C)c(=O)c(C)c32)c1 [Trametinib] (partner 0.02 µM)
Result string: 0.531

Query string: Which relative viability reading was recorded for the compound COc1nc(C)cnc1NS(=O)(=O)c1cccnc1-c1ccc(-c2nnco2)cc1 [Zibotentan] + O=C(CCCCCCC(=O)Nc1ccccc1)NO [Vorinostat] (partner 1 µM) ?
Result string: 0.446

Query string: I'd like to know its relative viability. The compound in question is O=c1cc(-c2cccc3c2Sc2ccccc2S3)oc(N2CCOCC2)c1 + CS(=O)(=O)N1CCN(Cc2cc3nc(-c4cccc5[nH]ncc45)nc(N4CCOCC4)c3s2)CC1 [Pictilisib] (partner 1 µM)
Result string: 1.36
